Reported pKd is given for each of the following binders.
ASSAY SYSTEM: T1, EsCas13d, nuclease-dead (Eubacterium siraeum, UniProt B0MS50, R295A;H300A;R849A;H854A)
T1 sequence: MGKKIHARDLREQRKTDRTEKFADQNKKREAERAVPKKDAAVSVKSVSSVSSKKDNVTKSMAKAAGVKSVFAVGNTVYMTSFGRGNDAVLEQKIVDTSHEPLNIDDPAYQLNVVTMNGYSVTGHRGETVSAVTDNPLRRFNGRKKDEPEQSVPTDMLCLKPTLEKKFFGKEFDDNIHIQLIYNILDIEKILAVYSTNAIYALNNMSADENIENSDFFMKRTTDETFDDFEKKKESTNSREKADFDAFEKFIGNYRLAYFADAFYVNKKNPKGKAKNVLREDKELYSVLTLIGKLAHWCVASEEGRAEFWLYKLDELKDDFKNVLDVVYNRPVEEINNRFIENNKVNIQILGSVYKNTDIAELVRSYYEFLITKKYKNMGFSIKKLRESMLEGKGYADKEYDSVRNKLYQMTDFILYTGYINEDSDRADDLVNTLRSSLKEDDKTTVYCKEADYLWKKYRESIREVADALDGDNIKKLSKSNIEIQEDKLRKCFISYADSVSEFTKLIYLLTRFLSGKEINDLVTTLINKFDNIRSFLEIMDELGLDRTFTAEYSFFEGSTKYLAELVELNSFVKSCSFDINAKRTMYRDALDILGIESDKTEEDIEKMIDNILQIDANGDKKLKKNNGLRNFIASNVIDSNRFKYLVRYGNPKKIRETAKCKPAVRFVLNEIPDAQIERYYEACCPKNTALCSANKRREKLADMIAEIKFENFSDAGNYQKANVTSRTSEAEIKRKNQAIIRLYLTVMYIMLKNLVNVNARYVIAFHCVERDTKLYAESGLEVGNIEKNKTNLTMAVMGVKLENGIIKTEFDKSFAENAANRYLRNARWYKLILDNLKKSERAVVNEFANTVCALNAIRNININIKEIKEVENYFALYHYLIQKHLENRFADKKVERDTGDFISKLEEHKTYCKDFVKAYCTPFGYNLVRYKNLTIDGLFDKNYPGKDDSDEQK
EXPERIMENT: crRNA (strand 1, pre-loaded); Mg2+; 40 mM Tris-HCl pH 7.5, 150 mM NaCl, 6 mM MgCl2, 1 mM DTT, 0.1% Tween-20, 0.2 mg/ml BSA; 25 C; 10 min per concentration, then washed
REPORTED CONDITIONS: tags: His6-TwinStrep-SUMO cleaved; N-terminal SNAP kept (SNAP-Surface 488); label: 3' end held by stalled T7 RNA polymerase
Lab note — pKd values are minus log10 of concentrations in M.

Worked cases, answers included:
>  <BINDER>
target 2 MT 5'PFS CGC 3'PFS CCA (mixed) RNA 1: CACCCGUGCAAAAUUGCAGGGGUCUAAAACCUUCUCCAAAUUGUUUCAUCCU RNA 2: GGGAAUGGAUCCACAUCUACGAAUUCCGCAGGAUGAAACAAUUUGGAGAAGCCAAGAUCGGAAGAGCACACGU

>  <pKd>
7.66

$$$$
>  <BINDER>
target 1 MT 5'PFS GGC 3'PFS UAG (mixed) RNA 1: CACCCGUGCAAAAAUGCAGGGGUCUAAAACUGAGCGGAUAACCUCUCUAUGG RNA 2: GGGAAUGGAUCCACAUCUACGAAUUCGGCCCAUAGAGAGGUUAUCCGCUCAUAGAGAUCGGAAGAGCACACGU

>  <pKd>
7.87

$$$$
>  <BINDER>
target 1 U11C,C21U (mixed) RNA 1: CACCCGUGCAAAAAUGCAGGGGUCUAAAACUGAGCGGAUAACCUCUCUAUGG RNA 2: GGGAAUGGAUCCACAUCUACGAAUUCGUACUAUAGAGAGGCUAUCCGCUCACCGAGAUCGGAAGAGCACACGU

>  <pKd>
8.00

$$$$
>  <BINDER>
target 3 C6A,U8C (mixed) RNA 1: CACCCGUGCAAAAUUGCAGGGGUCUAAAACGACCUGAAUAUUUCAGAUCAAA RNA 2: GGGAAUGGAUCCACAUCUACGAAUUCGUUUUUGAUCUGAAAUACUAAGGUCUGCAGAUCGGAAGAGCACACGU

>  <pKd>
7.46

$$$$
>  <BINDER>
target 1 G15A,A18C (mixed) RNA 1: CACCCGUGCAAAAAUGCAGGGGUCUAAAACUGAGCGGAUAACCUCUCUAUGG RNA 2: GGGAAUGGAUCCACAUCUACGAAUUCGUACCAUCGAAAGGUUAUCCGCUCACCGAGAUCGGAAGAGCACACGU

>  <pKd>
7.09

$$$$
>  <BINDER>
target 2 MT 5'PFS GUU 3'PFS AUC (mixed) RNA 1: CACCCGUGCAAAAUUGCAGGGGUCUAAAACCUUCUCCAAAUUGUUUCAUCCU RNA 2: GGGAAUGGAUCCACAUCUACGAAUUCGUUAGGAUGAAACAAUUUGGAGAAGAUCAGAUCGGAAGAGCACACGU

>  <pKd>
7.82

$$$$
>  <BINDER>
target 2 MT 5'PFS UAC 3'PFS AUU (mixed) RNA 1: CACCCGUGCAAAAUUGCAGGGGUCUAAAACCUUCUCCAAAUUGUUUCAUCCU RNA 2: GGGAAUGGAUCCACAUCUACGAAUUCUACAGGAUGAAACAAUUUGGAGAAGAUUAGAUCGGAAGAGCACACGU

>  <pKd>
8.03

$$$$
>  <BINDER>
target 2 MT 5'PFS GCA 3'PFS CAA (mixed) RNA 1: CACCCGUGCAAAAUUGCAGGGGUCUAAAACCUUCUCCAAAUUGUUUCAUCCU RNA 2: GGGAAUGGAUCCACAUCUACGAAUUCGCAAGGAUGAAACAAUUUGGAGAAGCAAAGAUCGGAAGAGCACACGU

>  <pKd>
8.11

$$$$
>  <BINDER>
target 1 A9G,U10C (mixed) RNA 1: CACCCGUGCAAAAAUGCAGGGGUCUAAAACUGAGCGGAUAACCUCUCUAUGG RNA 2: GGGAAUGGAUCCACAUCUACGAAUUCGUACCAUAGAGAGGUCGUCCGCUCACCGAGAUCGGAAGAGCACACGU

>  <pKd>
7.57

$$$$
>  <BINDER>
target 1 MT 5'PFS UGC 3'PFS UCC (mixed) RNA 1: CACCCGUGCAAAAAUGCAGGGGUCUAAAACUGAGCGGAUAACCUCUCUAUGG RNA 2: GGGAAUGGAUCCACAUCUACGAAUUCUGCCCAUAGAGAGGUUAUCCGCUCAUCCAGAUCGGAAGAGCACACGU

>  <pKd>
7.52

$$$$

Problem: Quote pKd reported for target 1 U3G,A20U (mixed) RNA 1: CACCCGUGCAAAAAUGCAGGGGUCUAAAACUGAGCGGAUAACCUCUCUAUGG RNA 2: GGGAAUGGAUCCACAUCUACGAAUUCGUACCUUAGAGAGGUUAUCCGCGCACCGAGAUCGGAAGAGCACACGU please.
Solution: 7.42

Problem: Quote pKd reported for target 1 insC 3' of 22,insC 3' of 15 (mixed) RNA 1: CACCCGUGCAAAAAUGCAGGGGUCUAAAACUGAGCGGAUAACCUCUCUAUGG RNA 2: GGGAAUGGAUCCACAUCUACGAAUUCGUACCCAUAGAGCAGGUUAUCCGCUCACCGAGAUCGGAAGAGCACACGU please.
Solution: 7.40

Problem: Quote pKd reported for target 2 MT 5'PFS GGC 3'PFS UGC (mixed) RNA 1: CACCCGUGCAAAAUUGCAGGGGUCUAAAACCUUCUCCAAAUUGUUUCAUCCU RNA 2: GGGAAUGGAUCCACAUCUACGAAUUCGGCAGGAUGAAACAAUUUGGAGAAGUGCAGAUCGGAAGAGCACACGU please.
Solution: 7.88

Problem: Quote pKd reported for target 3 A18G,U21A (mixed) RNA 1: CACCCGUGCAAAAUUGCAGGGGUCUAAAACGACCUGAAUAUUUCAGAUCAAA RNA 2: GGGAAUGGAUCCACAUCUACGAAUUCGUUUAUGGUCUGAAAUAUUCAGGUCUGCAGAUCGGAAGAGCACACGU please.
Solution: 7.24
